# Test system: C57BL6 mice
# protocol.description: Acute oral glucose tolerance test
# Assay type: in vivo
# condition.notes: % change in glucose AUC (0-180 min) from vehicle, 0.3 mg/kg oral, co-administered with glucose 2 g/kg

compound: CCOc1ccc(F)c(N2CCC(Oc3ccc(N4N=C(c5ccc(C#N)cc5)[C@@H](C)[C@@H]4CC(=O)O)cc3)CC2)c1
Acute oral glucose tolerance / %: −56
--
compound: COc1cc(N2CC[C@@H](Oc3ccc(N4N=C(C(F)(F)F)[C@@H](C)[C@@H]4CC(=O)O)cc3)[C@H](C)C2)c(Cl)cn1 (single isomer, unassigned) [Example 81, Isomer 2 (neutral form)]
Acute oral glucose tolerance / %: −54
--
compound: CCOc1ccc(F)c(N2CCC(Oc3ccc(N4N=C(C(F)(F)F)[C@@H](C)[C@@H]4CC(=O)O)cc3)C(CC)C2)c1 (single isomer, unassigned) [Example 25 (Isomer 2)]
Acute oral glucose tolerance / %: −38
--
compound: COc1ccc(F)c(N2CCC(Oc3ccc(N4N=C(C(F)(F)F)[C@@H](C)[C@@H]4CC(=O)O)cc3)CC2)c1
Acute oral glucose tolerance / %: −47
--
compound: COc1cc(N2CCC(Oc3ccc(N4N=C(C(F)(F)F)[C@@H](C)[C@@H]4CC(=O)O)cc3)CC2)c(Cl)cn1
Acute oral glucose tolerance / %: −38
